Tested on: LOX IMVI
Assay: NCI tumour cell line growth inhibition, 48 h
The source made the active and inactive calls. No stated cut-off is given here; in the data, active = GI50 up to about 1.1 µM and inactive = higher.
Hi! Could you answer with just one of these? TRUE = active, FALSE = inactive

In: Test call, this molecule: COc1ccc(OC)c2cc(C3(C)SCCCS3)ccc12
Out: FALSE

In: Test call, this molecule: COC(=O)CC(c1ccccc1)C1(c2ccccc2)SCCS1 (stereo not drawn)
Out: FALSE

In: Test call, this molecule: COc1ccc(N2C(=O)CS(=O)(=O)C2c2cccc(Oc3ccccc3)c2)cc1 (stereo not drawn)
Out: FALSE

In: Test call, this molecule: C#CCOc1c(C(=O)OCC)c(=O)n(C)c2ccccc12
Out: FALSE

In: Test call, this molecule: O=C(N/N=C/c1cc(Cl)cc(Cl)c1O)c1ccccc1O
Out: TRUE

In: Test call, this molecule: Cc1ccc(S(=O)(=O)NC2C(=O)c3ccccc3C(=O)C2n2cnc3ccccc32)cc1 (stereo not drawn)
Out: FALSE

In: Test call, this molecule: CCOC(=O)Nc1sc2c(c1C#N)CCCC2
Out: FALSE

In: Test call, this molecule: Fc1cccc(Cl)c1C1SCc2nc3cc4ccccc4cc3n21 (stereo not drawn)
Out: FALSE

In: Test call, this molecule: Nc1nc2c(c(=O)[nH]1)C(c1ccccc1)CC(=O)N2 (stereo not drawn)
Out: FALSE

In: Test call, this molecule: S=C(S)NCC1CCC(CNC(=S)S)CC1 (stereo not drawn)
Out: FALSE

In: Test call, this molecule: O=c1[nH]nc(Nc2ccc(Cl)cc2)c2nnn(C3CCCCC3)c12
Out: FALSE

In: Test call, this molecule: O=C(CC(C(=O)c1cccs1)c1ccsc1)c1ccccc1 (stereo not drawn)
Out: FALSE

In: Test call, this molecule: COC(=O)CC1NC(=O)[C@@H]1C(C)O (stereo partly drawn)
Out: FALSE

In: Test call, this molecule: Cc1cc(Cl)ccc1/N=N/C(=O)NNc1ccc(Cl)cc1C
Out: FALSE

In: Test call, this molecule: Brc1ccc(C2=NCSC(c3ccc(Br)cc3)=N2)cc1
Out: FALSE

In: Test call, this molecule: O=C1/C(=C\c2ccco2)Oc2ccccc21
Out: FALSE

In: Test call, this molecule: CCOC(=O)/C(=C\NC#N)c1nc2ccccc2[nH]1
Out: FALSE

In: Test call, this molecule: CN(C)/C(=N/C(=O)Nc1ccccc1)SCc1ccccc1
Out: FALSE

In: Test call, this molecule: CC1C(=O)OC2CC[N+]3(CC(=O)c4ccc(Br)cc4)CC=C(COC(=O)C(C)(O)C1(C)O)C23 (stereo not drawn)
Out: FALSE

In: Test call, this molecule: COC(=O)C(Cc1nc2ccc(Cl)cc2nc1O)C(=O)C(=O)Nc1ccccc1[N+](=O)[O-] (stereo not drawn)
Out: FALSE

In: Test call, this molecule: O=C(O)CC12C3C4C5C3C1C5C42 (stereo not drawn)
Out: FALSE

In: Test call, this molecule: Cn1cc(C(=O)c2ccccc2)c2ccccc2c1=O
Out: FALSE

In: Test call, this molecule: COC(=O)C1CCCC2(C1)OCCO2 (stereo not drawn)
Out: FALSE

In: Test call, this molecule: CCOC(=O)c1cn2c(ccc3sc4ccccc4c(=O)c32)n1
Out: FALSE

In: Test call, this molecule: Nc1ccc([As](=O)(O)O)cc1
Out: FALSE

In: Test call, this molecule: N=S(=O)(c1ccccc1)c1ccccc1
Out: FALSE

In: Test call, this molecule: COC(=O)C1=COC(C)C2C[n+]3ccc4c([nH]c5ccccc54)c3CC12 (stereo not drawn)
Out: FALSE

In: Test call, this molecule: Cc1cc2[nH]c3c(C#N)c(-c4ccccc4)c(/N=N/c4ccc(F)cc4)c(=O)n3c2cc1C
Out: FALSE

In: Test call, this molecule: CCOC(=O)c1c(-c2ccc(OC)cc2)ccn1C
Out: TRUE

In: Test call, this molecule: COc1cccc2cc(C(C)=O)c(=O)oc12
Out: FALSE

In: Test call, this molecule: Cc1ccc(NC(=O)c2cc(S(=O)(=O)Nc3n[nH]c(=O)[nH]3)c(SSc3cc(Cl)c(C(=O)Nc4ccc(C)cc4)cc3S(=O)(=O)Nc3n[nH]c(=O)[nH]3)cc2Cl)cc1
Out: FALSE

In: Test call, this molecule: NCCCCC(N)C(=O)NCCNc1ccc(NCCNC(=O)C(N)CCCCN)c2c1C(=O)c1ccccc1C2=O (stereo not drawn)
Out: FALSE

In: Test call, this molecule: C[Si](C)(OCCS(=O)(=O)O)C1(Cc2cccc3ccccc23)S(=O)(=O)OCCOS1(=O)=O
Out: FALSE

In: Test call, this molecule: COc1cc(/C=C/C(=O)N[C@@H]2C(=O)N3[C@@H]2SC(C)(C)[C@@H]3C(=O)O)ccc1O
Out: FALSE

In: Test call, this molecule: O=C(N/C(=C\c1cccc([N+](=O)[O-])c1)c1nc2c(O)nc(S)nc2[nH]1)c1ccccc1
Out: FALSE

In: Test call, this molecule: c1cc2c(cc1C1OCC3C(c4ccc5c(c4)OCO5)OCC13)OCO2 (stereo not drawn)
Out: FALSE

In: Test call, this molecule: COc1cc(C(CN)N(C)C)cc(OC)c1OC (stereo not drawn)
Out: FALSE

In: Test call, this molecule: COc1ccc(NC(=O)CC/C(CC(=O)C(C)(C)C)=N\NC(=O)C(N)=O)cc1
Out: FALSE

In: Test call, this molecule: Cc1ccc2c(O)cc(-c3csc4ccccc34)nc2n1
Out: TRUE

In: Test call, this molecule: O=C(Nc1cc(Cl)c(Cl)cc1Cl)C(=O)C(C(=O)c1ccc(Cl)c(Cl)c1)C1OC(=O)c2ccccc21 (stereo not drawn)
Out: FALSE

In: Test call, this molecule: CC(=O)OC1COC(n2ccc3cc(Br)c([N+](=O)[O-])cc32)C(OC(C)=O)C1OC(C)=O (stereo not drawn)
Out: FALSE

In: Test call, this molecule: CCOc1ccccc1/N=N/C1C(=O)N(C(=O)CC(=O)Nc2ccccc2OC)N=C1C (stereo not drawn)
Out: FALSE

In: Test call, this molecule: COc1ccc(CCNC(=O)c2ccccc2C2c3ccc(OCc4ccccc4)cc3Oc3cc(OCc4ccccc4)ccc32)cc1OC
Out: FALSE
